Measured activity change, negative = inhibition values are reported for all entries that follow.
- PROTOCOL_DETAILS: NFAT Signaling Pathway (AID 444);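 also: carbachol stimulus at about its EC50 of 1 µM final; % is scaled to controls: 0 for no effect and ±100 for the full control effect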
- ASSAY_SETUP: Jurkat NFAT-bla M1, carbachol, beta-lactamase ratio, 5 h; at 7.69 µM (top of the series) unless noted
- Method: NCGC Assay Overview: The nuclear factor of activated T cells (NFAT) family of transcription factors has been found primarily in most immune system cells and some other non-immune cells. NFAT plays the immunomodulatory role, primarily in T-cell activation and differentiation. […] NCGC Assay Protocol Summary: The cells were prepared in RPMI 1640 medium containing 0.1% dialyzed FBS and 25 mM HEPES at 1.6 x 10^6cell/ml. […] The %Activity was determined from the ratio of 460nm/530nm. […]
Results filed as inconclusive are left out.
# unit: % | format: bare number

# SMILES_INPUT, UNIT_NAME, OBS_VALUE
data = [
    ("COc1ccccc1CNc1ncncc1-c1cccc(C#N)c1", "%", -5.86),
    ("COc1ccc(NC(=O)N2CC3(CCN(C(=O)c4c(C)noc4C)CC3)C2)cc1", "%", 15.1),
]

Req: Could you tell me which activity change, negative = inhibition is on file for COC(=O)N1CCC[C@@]2(CCN(C(c3ccccc3)c3ccccc3)C2)C1 ?
Resp: -6.57

Req: Could you tell me which activity change, negative = inhibition is on file for Cc1noc(C)c1-c1nccc(N2CCOCC2)n1 ?
Resp: 4.77

Req: Could you tell me which activity change, negative = inhibition is on file for FC(F)(F)c1ccccc1-c1nc(N2CCOCC2)c2ccccc2n1 ?
Resp: -3.63

Req: Could you tell me which activity change, negative = inhibition is on file for COCCNc1ccnc(-c2cccc(NS(C)(=O)=O)c2)n1 ?
Resp: 12.6
